Would you kindly list T/C for each of these molecules?
Tested on: L1210 leukemia ip in BDF1 mice, survival T/C
Test: NCI In Vivo Anticancer Drug Screen. Data for tumor model L1210 Leukemia (intraperitoneal) in B6D2F1 (BDF1) mice
Study Conditions: endpoint: mean survival time; dose: 100.0 mg/kg/injection; schedule: Q01DX009 (ip); vehicle: Klucel (hydroxypropylcellulose) (HPC); higher = longer survival
Toxic doses and inconclusive results are not listed.

Query: Report T/C for O=C(NC(c1ccccc1)C(Cl)(Cl)Cl)c1ccccc1 (configuration not stated) please.
Result: 97 % of control

Query: T/C lookup needed for `CCOC(CCc1c(-c2ccccc2)nc(NC(C)=O)[nH]c1=O)OCC` , thanks.
Result: 105 % of control

Query: Would you mind telling me what T/C value was observed for `COCCOC(=O)C(=O)OCCOC` ?
Result: 97 % of control

Query: What value of measured T/C is listed for `O=c1[nH]cc(Cl)cc1Cl` ?
Result: 94 % of control

Query: For the molecule shown here, `COc1ccc(NC(=O)Oc2ccc(Cl)cc2Cl)c(OC)c1` , give the reported T/C.
Result: 114 % of control

Query: Entry under review: CCOC(=O)C(C#N)C(C)CC (configuration not stated) . Reported T/C?
Result: 102 % of control

Query: Given the molecule O=C(Nc1ccc(Cl)c([N+](=O)[O-])c1)N(CC(O)c1ccccc1)C1CCCCC1 (configuration not stated) , what is its reported T/C?
Result: 93 % of control

Query: What does the data say about its T/C? Entry: `Cc1ccc(NC(=O)COc2ccc(Cl)cc2)c(C)c1`
Result: 100 % of control

Query: # lookup: T/C of `Nc1[nH][nH]c(=O)c1N`
Result: 100 % of control

Query: // query T/C value for entry `CN(CCC#N)c1ccc(/C=C(\C#N)c2ccc(Cl)cc2)cc1`
Result: 102 % of control

Query: State the recorded T/C for this entry: `Cc1c(S(=O)(=O)F)ccc(O)c1[N+](=O)[O-]`
Result: 104 % of control

Query: Which value of T/C has been reported for CC(Cc1ccccc1)NC(C#N)c1ccccc1 (configuration not stated) in the records?
Result: 96 % of control

Query: Suppose we examine the molecule `CNC(=O)NNC(=O)CNC(=O)Nc1ccc(Cl)c(Cl)c1` ; what T/C value has been reported?
Result: 106 % of control

Query: T/C lookup needed for CC(C)(C)C12OC1C(=O)C1(C(C)(C)C)OC1C2=O (configuration not stated) , thanks.
Result: 97 % of control

Query: Entry under review: `O=[N+]([O-])c1cc2c(cc1Br)nc(Cl)c1cc(Br)ccc12` . Reported T/C?
Result: 89 % of control

Query: Request the reported T/C associated with `COc1cc([N+](=O)[O-])ccc1NC(=O)Nc1cc(Cl)c(Cl)cc1C`
Result: 94 % of control

Query: I am curious: what T/C value has been reported for `Cc1ccc2ccccc2c1CC(=O)O` ?
Result: 101 % of control

----------
System: L1210 leukemia ip in BDF1 mice, survival T/C
Test: NCI In Vivo Anticancer Drug Screen. Data for tumor model L1210 Leukemia (intraperitoneal) in B6D2F1 (BDF1) mice
Study Conditions: endpoint: mean survival time; dose: 100.0 mg/kg/injection; schedule: Q04DX003 (ip); vehicle: Klucel (hydroxypropylcellulose) (HPC); higher = longer survival
Toxic doses and inconclusive results are not listed.
Property Label: T/C

Query: Looking for the measured T/C of `COc1cc(C)c2c(c1)C(=O)OC2=O` , can you help?
Result: 100 % of control

Query: Data request, read-out T/C, for `CCCCn1c(Cl)c(C(=O)O)c2ccccc21`
Result: 91 % of control

Query: Entry `N#CSCc1ccccc1` has what T/C?
Result: 91 % of control

Query: Can you look up the measured T/C of `CN(C)N=Nc1ccc(C(=O)N/N=C/c2cccc([N+](=O)[O-])c2)cc1` for me?
Result: 106 % of control

Query: What measured T/C goes with `Cc1cc(=O)[nH]c(N/N=C/c2ccccc2O)n1` ?
Result: 92 % of control

Query: What measured T/C goes with `CN(C)c1ccc(C(/C=N\O)(c2ccc(N(C)C)cc2)c2ccc(N(C)C)cc2)cc1` ?
Result: 90 % of control

Query: Would you kindly share the measured T/C for O=S1(=O)CC(c2ccc(Cl)cc2)Nc2ccccc21 (stereo not drawn) ?
Result: 103 % of control

Query: Give its T/C value. Item: `S=C(NCCS)Nc1ccccc1`
Result: 98 % of control
